From: a melting point compilation (Tetko et al.; mined from patent text by program, amines drawn as free bases though some values may be those of a salt)

readout.label: melting point

Oc1cc(-c2ccccc2)on1 :: 150 to 151 °C
CCC1CC(C)C(=O)C=C1c1ccc(OCC(=O)O)c(Cl)c1Cl (stereo not given) :: 99 to 100 °C
CN1C(=O)CSC=C1c1ccccc1 :: 95 to 97 °C
CC(=O)OC1CSC(Sc2ccc(S(=O)(=O)c3ccccc3)cc2)C(OC(C)=O)C1OC(C)=O (stereo not given) :: 159 °C
CC(C)C(=O)NCc1ccc(-c2csc(N=C(N)N)n2)o1 :: 211 to 213 °C
O=S(=O)(Oc1cccc(OCCC(c2ccccc2)(c2ccccc2)c2ccccc2)c1)c1ccccc1 :: 124 to 125 °C
C=C(C)[C@H]1CC[C@@](C)(O)[C@H](NC23CC4CC(CC(C4)C2)C3)C1 :: 94 to 96 °C
CCOC(=O)c1c(N)c2cc(Cl)ccc2n1C(=O)C(F)(F)F :: 249 to 251 °C
O=C(Nc1ccc2c(c1)CC(NS(=O)(=O)c1ccccc1)C2)c1ccccc1-c1ccc(C(F)(F)F)cc1 (stereo not given) :: 96 °C
COC(=O)[C@@H]1Cc2cc(OC)c(O)cc2C(=O)N1 :: 280 to 285 °C

IN: Tell me the measured melting point of CC(=CC(=O)N1CCCC1C(=O)O)C(=O)c1ccc(Br)cc1 (stereo not given) , please.
OUT: 137 to 144 °C

IN: Quick one: `NC(=O)CCNc1cc(Oc2ccc(C(F)(F)F)cc2Cl)ccc1[N+](=O)[O-]`
OUT: 137 to 138 °C

IN: Quick one: Cc1ccc(C)c2c1OCc1ccccc1C2C(=O)Nc1c(C(C)C)cccc1C(C)C (stereo not given)
OUT: 149 to 150 °C

IN: Quick one: O=C(NC1C(O)=COC2=C1SC([N+](=O)[O-])C2)c1ccc(C(F)(F)F)cc1 (stereo not given)
OUT: 219 to 220 °C

IN: Quick one: CCCCCCCCCCNCC(O)CO (stereo not given)
OUT: 65 to 67 °C

IN: Quick one: `CCOC(=O)c1cnn2c1c(N1CCOCC1)nc1ccccc12`
OUT: 142 to 143 °C

IN: Quick one: COc1ccc(C2C(C#N)=C(N)OC3=C2C(=O)CC(C)(C)C3)cc1 (stereo not given)
OUT: 197 to 200 °C

IN: Quick one: `CCCCOC(=O)[C@H]1CN(c2ccc3c(c2)oc(=O)n3C(C)C)C(=O)O1`
OUT: 86 to 89 °C

IN: Quick one: `Oc1ccc(-c2nc3cc(O)ccc3o2)c(O)c1`
OUT: > 300 °C

IN: Quick one: `CS(=O)(=O)NCCCCCCCCCCCn1c2c(c3ccccc3c1=O)C(=O)c1ccccc1-2`
OUT: 136 to 137 °C

IN: Quick one: `Cc1c(O)cc2c(c1Cl)CCC2(C)C`
OUT: 109 to 110 °C

IN: Quick one: O=c1nc(-c2ccccc2)c2cc([N+](=O)[O-])ccc2n1CC1CCCO1 (stereo not given)
OUT: 150 to 152 °C

---

Examples of compounds with documented melting point follow.

Nc1cc(F)ccc1C(=O)Nc1ccccc1 :: 120 to 122 °C

IN: Tell me the measured melting point of N[C@@]1(C(=O)O)C[C@H](Oc2ccc(Cl)cc2Cl)[C@H]2[C@H](C(=O)O)[C@H]21 (relative stereo) , please.
OUT: > 250 °C

IN: Quick one: `CN(C)CCCC(=O)N1CCOc2cc3ncc(C#N)c(Nc4ccc(F)c(Cl)c4)c3cc21`
OUT: 165 °C

IN: Quick one: `O=C(OCc1cncs1)Oc1ccc([N+](=O)[O-])cc1`
OUT: 62 to 64 °C

IN: Quick one: `CC(C)(C)OC(=O)CN1CCN[C@@H](Cc2ccc(OC(C)(C)C)cc2)C1=O`
OUT: 124 to 126 °C

IN: Quick one: O=C1CCC2(Cc3ccc(Br)cc3)C(=O)N(c3cc(Cl)cc(Cl)c3)C(=O)N12 (centres undefined)
OUT: 230 °C

IN: Quick one: `CCOC(=O)CCc1cn(Cc2ccc(OCc3coc(-c4ccccc4)n3)cc2)nc1OCC`
OUT: 80 to 81 °C

IN: Quick one: NCCCc1ccc(OCCC2Oc3ccccc3N(Cc3cccc(Cl)c3)C2=O)cc1 (centres undefined)
OUT: 109 to 111 °C

IN: Quick one: `CNc1ccnc(Cl)c1N`
OUT: 166 to 168 °C

---

Examples of compounds with documented melting point follow.

IN: Tell me the measured melting point of `Cc1nc(N)nc(C)c1Br` , please.
OUT: 183 to 185 °C

IN: Quick one: `CCOC(=O)C(C#N)=NOC(=O)OCC(C)C`
OUT: 60 to 62 °C

IN: Quick one: `C[C@H](C#Cc1ccc(Cc2ccccc2)s1)N(O)C(N)=O`
OUT: 140 to 142 °C

---

readout.label: melting point

IN: Tell me the measured melting point of `CN(Cc1ccc(Cl)cc1)S(=O)(=O)c1cn(S(=O)(=O)N(C)C)cn1` , please.
OUT: 112 to 114 °C

IN: Quick one: COC(=O)C(Sc1ccccc1)c1ccc(Oc2ccc(Cl)cc2)cc1 (stereo not given)
OUT: 64 to 68.5 °C

IN: Quick one: COc1ccccc1CN[C@H]1CCCN(C)[C@H]1c1ccccc1 (relative stereo)
OUT: 58 °C

IN: Quick one: `Nc1cccc(CC(=O)NCc2ccccc2Br)c1`
OUT: 110 to 112 °C

IN: Quick one: `O=C(NCc1ccccc1)c1sc2ccccc2c1Br`
OUT: 115 to 117 °C

---

Examples of molecules with documented melting point follow.

The following molecules have reported results that may help.
CN(C(=N)N)c1nccc(Oc2ccc(NC(=O)c3cc(F)cc(N4CCOCC4)c3)c3ccccc23)n1 :: 155 to 157 °C
CCNC(=O)Nc1ncc(-c2ccncc2)cn1 :: 241 to 246 °C
CC1(C)Cn2c(nc3c(N)nc4ccccc4c32)CN1S(C)(=O)=O :: 227 to 228 °C
OCCN(CCO)CC(c1ccc(Cl)cc1)c1ccc(Cl)cc1 :: 75 to 76 °C

Turning to the following molecule.
IN: Tell me the measured melting point of O=C(O)COc1ccc(C2=CC(=O)CC(c3ccccc3F)C2)c(Cl)c1Cl (stereo not given) , please.
OUT: 187 to 190 °C

---

readout.label: melting point

IN: Tell me the measured melting point of CC(=O)NCC1CN(c2ccc(N3CCN(c4ncc([N+](=O)[O-])s4)CC3)c(F)c2)C(=O)O1 (stereo not given) , please.
OUT: 202 to 203 °C

---

Examples of compounds with documented melting point follow.

The following compounds have reported results that may help.
Clc1nc2nc(Cl)sc2s1 :: 180 °C
COc1ccccc1-c1cc(C(F)(F)F)nn1-c1ccc(S(N)(=O)=O)c(F)c1 :: 159 to 160 °C
Clc1ccc(C2=NNC(c3cccnc3)S2)cc1 (stereo not drawn) :: 106 to 108 °C
COCCN(CCOC)c1nc2cc(-c3ccc(OC)cc3)nnc2c2ccccc12 :: 127 to 128 °C
CC(C(=O)O)c1ccc2c(c1)CCc1cccnc1S2 (stereo not drawn) :: 181 to 183 °C

IN: Tell me the measured melting point of `O=c1oc(=O)n(Cc2ccco2)c2ccccc12` , please.
OUT: 131 to 133 °C

IN: Quick one: `COc1ccccc1N1CCN(CCCCc2c[nH]c3ccccc23)CC1`
OUT: 113 to 115 °C

IN: Quick one: CC1(C2CCCC2)Cc2cc(OCCCCCC(=O)O)c(Cl)c(Cl)c2C1=O (stereo not drawn)
OUT: 127 to 129 °C

IN: Quick one: `[N-]=[N+]=Nc1nc(N=[N+]=[N-])c2ncn(COC(CO)CO)c2n1`
OUT: 174 to 180 °C

IN: Quick one: `Cc1ccc(NN2C=c3cc(-c4c(Cl)cccc4Cl)c(=O)n(C)c3=NC2)cc1`
OUT: 243 to 245 °C

IN: Quick one: `Cc1nc2cccc(Cn3ccc4cc(Cl)ccc43)c2c(=O)[nH]1`
OUT: 251 to 252 °C

IN: Quick one: `O=C(/C=C/c1ccccc1I)NCCO`
OUT: 130 to 132 °C

IN: Quick one: `Cc1cc(-n2nn[nH]c2=O)c(Cl)cc1Cl`
OUT: 135 to 137 °C

IN: Quick one: `COc1cccc(S(=O)(=O)c2ccc3c(c2)c(CCNC(=O)OC(C)(C)C)c(C)n3C)c1`
OUT: 115 to 122 °C

---

Examples of compounds with documented melting point follow.

CC(C)(S)CNC(=O)/C(CCO)=C(\c1ccc(Cl)cc1)c1ccc(S(C)(=O)=O)cc1 :: 62 to 64 °C
COc1ccc(-c2cccc(C3SC(N4CCOCC4)=NC3=O)n2)cc1-c1ccccc1 (centres undefined) :: 214 to 217 °C
CCCOc1ccc(C(=O)CC(=O)C(C)(C)C)cc1OC :: 55.5 to 56.7 °C
CCCOc1cc(OCCCc2cn(-c3ccc(C(F)(F)F)cn3)nc2OCC)ccc1CCC(=O)O :: 126 to 127 °C
COc1ccc(C(=C/C=C/C(=O)NCCCCc2cncc3ccccc23)c2ccc(OC)cc2)cc1 :: 91 to 93 °C
Cc1ccnc(-c2ccoc2)c1OC1SCC(O)C(O)C1O (centres undefined) :: 95 °C
Cc1cc(C(O)C(Cl)(Cl)Cl)n(C)c1 (centres undefined) :: 55 to 57 °C
CC(C)(C)OC(=O)c1ccc(N(Cc2ccc(C(=O)O)cc2)Cc2cc(Br)ccc2OCc2ccccc2)cc1 :: 110 °C

IN: Tell me the measured melting point of `COc1cc(C2CCN(C[C@@H](O)CO)CC2)ccc1-c1nc2c(N[C@H]3[C@@H](C(N)=O)[C@@H]4C=C[C@H]3C4)c(Cl)cnc2[nH]1` , please.
OUT: 209 to 211 °C

IN: Quick one: `COC(=O)CC1=C(C)/C(=C/c2ccc(SC)cc2)c2ccc(F)cc21`
OUT: 73 to 75 °C

IN: Quick one: `CCC(CC)Nc1cc(C(=O)O)ccc1N1C(=O)CCC1(CO)CO`
OUT: 220 to 221 °C

IN: Quick one: `OC/C=C/C=C(c1ccccc1)c1ccccc1`
OUT: 71 to 72 °C

IN: Quick one: `Cc1ccccc1Oc1nc(Cl)cc(Cl)n1`
OUT: 78 to 79 °C

IN: Quick one: `C=CCOC(=O)c1c(C)nc2c(cnn2CCC(=C)C)c1N`
OUT: 68 to 69 °C

IN: Quick one: `COC(=O)COc1cc(Cl)c(SCc2cc(-c3ccc(C(F)(F)F)cc3)on2)cc1C`
OUT: 120 to 121 °C

IN: Quick one: C=CC1CC2C3CCC4=CC(=O)CCC4=C3C(c3ccc(-c4ccc(OC)nc4)cc3)CC2(C)C1C(=O)C1CC1 (centres undefined)
OUT: 197 °C

IN: Quick one: `COc1cc([N+](=O)[O-])c(N)cc1OC(F)F`
OUT: 144 to 145 °C

IN: Quick one: `Cc1ccc(NC(=O)c2cc(Cl)ccc2NCC2CCN(C3CCS(=O)(=O)CC3)CC2)nc1`
OUT: 154 to 156 °C

IN: Quick one: `Cc1cccc2ncc(C(=O)Nc3ccc(F)cc3)c(=O)n12`
OUT: 202 to 204 °C
